The reported measurements were obtained from PubChem BioAssay (NCI).

Assay: NCI Yeast Anticancer Drug Screen. Data for the mec2-1 strain (AID 157)
Conditions: S. cerevisiae mec2-1 strain, at 100.0 µM, active compounds read high
The panel holds about 79,000 compounds, 15% with a hit somewhere; the sample as a whole holds those more often.
Binary call on growth inhibition: true (1) from 80% upward, false (0) beneath that.

Illustrative cases are given below, each with its answer.
C[Si](C)(C)CNC(=O)OCc1ccccc1; false (0)
[N-]=[N+]=NC1=C(c2ccccn2)C(=O)c2cccc3cccc1c23; false (0)
COc1ccc2nc3c([N+](=O)[O-])ccc(NCCN(C)C)c3c(NCCN(C)C)c2c1; false (0)
CCC(=O)OCCn1c2nc(=O)[nH]c(=O)c-2nc2cc(C)c(C)cc21; false (0)
O=C1OC(=O)C2CCCC3CCCC1C32 (stereo unspecified); true (1)

Exercise: Confirm if growth inhibition reported for the compound CNC(=O)OCc1c(COC(=O)NC)c(-c2ccc(-c3ccccc3)cc2)n(C)c1C is 80% or above.
Key: false (0)

Exercise: For this compound, is measured growth inhibition 80% or higher? c1ccc(-c2nc3cccnc3s2)cc1
Key: false (0)

Exercise: Tell me whether growth inhibition is at least 80% here: O=C1C=CC(=C(c2ccccc2)c2ccccc2)c2ccccc21
Key: false (0)

Exercise: Hi, just wondering whether CC(C)c1ccccc1NC(=O)/C(Cl)=C(\Cl)C(=O)O shows growth inhibition of 80% or higher.
Key: true (1)

Exercise: Dear colleague, could you confirm whether CCOC(=O)[C@H]1Nc2ccccc2C2c3ccccc3CC21 (stereo partly specified) has growth inhibition at or above 80%?
Key: false (0)
